Item-by-item account of viability, T/C
# Test system: 388556-164-R-J1-PDC complex spheroid viability;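 also: spheroids exposed to compound for 7 days before readout; 100% = DMSO vehicle control luminescence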
# assay text: Anticancer human tumor 388556-164-R-J1-PDC patient-derived colon adenocarcinoma cell line growth inhibition [RAS]
# setup conditions: second compound 0.0949 µM; first compound 0.00316 µM; stronger effect = lower value
measurement label: viability, T/C (%)

>>> experimental_result("CCN1CCN(Cc2ccc(Nc3ncc(F)c(-c4cc(F)c5nc(C)n(C(C)C)c5c4)n3)nc2)CC1 + CCn1c(-c2cc(N3CCN(C)CC3)cnc2C(C)OC)c2c3cc(ccc31)-c1csc(n1)CC(NC(=O)C1CC1C)C(=O)N1CCCC(N1)C(=O)OCC(C)(C)C2")
45.9
>>> experimental_result("CC(C)n1nc(-c2ccc3oc(N)nc3c2)c2c(N)ncnc21 + CCn1c(-c2cccnc2C(C)OC)c2c3cc(ccc31)N1CCOC(CC(NC(=O)C(C(C)C)N(C)C(=O)C3(F)CCN(C(=O)C#CC(C)(C)N(C)C)CC3)C(=O)N3CCCC(N3)C(=O)OCC(C)(C)C2)C1")
80.2
>>> experimental_result("C=CC(=O)Nc1cc(Nc2nccc(-c3cn(C)c4ccccc34)n2)c(OC)cc1N(C)CCN(C)C + CCn1c(-c2cccnc2C(C)OC)c2c3cc(ccc31)N1CCOC(CC(NC(=O)C(C(C)C)N(C)C(=O)C3(F)CCN(C(=O)C#CC(C)(C)N(C)C)CC3)C(=O)N3CCCC(N3)C(=O)OCC(C)(C)C2)C1")
105
>>> experimental_result("C=CC(=O)N1CCN(c2nc(OCC3CCCN3C)nc3c(F)c(-c4nc(N)cc(C)c4C(F)(F)F)c(Cl)cc23)C(C)C1 (stereo not given) + CCn1c(-c2cc(N3CCN(C)CC3)cnc2C(C)OC)c2c3cc(ccc31)-c1csc(n1)CC(NC(=O)C1CC1C)C(=O)N1CCCC(N1)C(=O)OCC(C)(C)C2")
43.2
>>> experimental_result("Nc1ccn(C2OC(CO)C(O)C2(F)F)c(=O)n1 (stereo not given) + CCn1c(-c2cc(N3CCN(C)CC3)cnc2C(C)OC)c2c3cc(ccc31)-c1csc(n1)CC(NC(=O)C1CC1C)C(=O)N1CCCC(N1)C(=O)OCC(C)(C)C2")
42.1
>>> experimental_result("CC(C)n1nc(-c2ccc3oc(N)nc3c2)c2c(N)ncnc21 + CCn1c(-c2cc(N3CCN(C)CC3)cnc2C(C)OC)c2c3cc(ccc31)-c1csc(n1)CC(NC(=O)C1CC1C)C(=O)N1CCCC(N1)C(=O)OCC(C)(C)C2")
39.1
>>> experimental_result("C=CC(=O)Nc1cc(Nc2nccc(-c3cn(C)c4ccccc34)n2)c(OC)cc1N(C)CCN(C)C + CCn1c(-c2cc(N3CCN(C)CC3)cnc2C(C)OC)c2c3cc(ccc31)-c1csc(n1)CC(NC(=O)C1CC1C)C(=O)N1CCCC(N1)C(=O)OCC(C)(C)C2")
39.4
>>> experimental_result("O=C(c1ccc(F)c(F)c1Nc1ccc(I)cc1F)N1CC(O)([C@@H]2CCCCN2)C1 + CCn1c(-c2cccnc2C(C)OC)c2c3cc(ccc31)N1CCOC(CC(NC(=O)C(C(C)C)N(C)C(=O)C3(F)CCN(C(=O)C#CC(C)(C)N(C)C)CC3)C(=O)N3CCCC(N3)C(=O)OCC(C)(C)C2)C1")
102
>>> experimental_result("O=C(c1ccc(F)c(F)c1Nc1ccc(I)cc1F)N1CC(O)([C@@H]2CCCCN2)C1 + CCn1c(-c2cc(N3CCN(C)CC3)cnc2C(C)OC)c2c3cc(ccc31)-c1csc(n1)CC(NC(=O)C1CC1C)C(=O)N1CCCC(N1)C(=O)OCC(C)(C)C2")
35
>>> experimental_result("Nc1ccn(C2OC(CO)C(O)C2(F)F)c(=O)n1 (stereo not given) + CCn1c(-c2cccnc2C(C)OC)c2c3cc(ccc31)N1CCOC(CC(NC(=O)C(C(C)C)N(C)C(=O)C3(F)CCN(C(=O)C#CC(C)(C)N(C)C)CC3)C(=O)N3CCCC(N3)C(=O)OCC(C)(C)C2)C1")
90.6

Reference for the values: PubChem BioAssay AID2060907
